target of assay: T1, AFP158/HLA-A*02:01 complex (human)
T1 construct: flowed over the chip in SPR; also called AFP158 pro
measurement description: SPR, KD ratio to AS170036 VL1VH1;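 also: crude scFv captured on a sensor chip, peptide–HLA complex passed over at several concentrations, association then buffer dissociation, KD derived from on- and off-rates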
Exercise: for every item that follows, state its recorded Affinity increase.

// lookup Affinity increase for HD102E (scFv, AS170036 VL1VH1 scFv mutein) scFv: QSALTQPRSVSGSPGQSVTISCAGTSSDVGSENYVSWYQQHPGKAPKLMIYQVNKRASGVPDRFSGSKSGNTASLTISGLQAEDEADYYCASYRSSDHNIVFGGGTKLTVLGGGGSGGGGSGGGGSEVQLVESGGGLVQPGGSLRLSCAASGFTFSSYAMSWVRQAPGKGLEWVSTINSGTGSPYYADSVKGRFTISRDNSKNTLYLQMNSLRAEDTAVYYCAKNFFEGSWFLGPPAMDYWGQGTLVTVSSHHHHHH
1.2 fold

Now give it for HP110A (scFv, AS170036 VL1VH1 scFv mutein) scFv: QSALTQPRSVSGSPGQSVTISCAGTSSDVGSENYVSWYQQHPGKAPKLMIYQVNKRASGVPDRFSGSKSGNTASLTISGLQAEDEADYYCASYRSSDHNIVFGGGTKLTVLGGGGSGGGGSGGGGSEVQLVESGGGLVQPGGSLRLSCAASGFTFSSYAMSWVRQAPGKGLEWVSTINSGTGSPYYADSVKGRFTISRDNSKNTLYLQMNSLRAEDTAVYYCAKNFFDGSWFLGPAAMDYWGQGTLVTVSSHHHHHH too.
1.3 fold

Hello, the source for this data is patent US20240279318A1, in case you need it.
